Target: Polyketide synthase Pks13 (Mycobacterium tuberculosis (strain ATCC 25618 / H37Rv)) (UniProt I6X8D2)
Sequence (I6X8D2 whole entry): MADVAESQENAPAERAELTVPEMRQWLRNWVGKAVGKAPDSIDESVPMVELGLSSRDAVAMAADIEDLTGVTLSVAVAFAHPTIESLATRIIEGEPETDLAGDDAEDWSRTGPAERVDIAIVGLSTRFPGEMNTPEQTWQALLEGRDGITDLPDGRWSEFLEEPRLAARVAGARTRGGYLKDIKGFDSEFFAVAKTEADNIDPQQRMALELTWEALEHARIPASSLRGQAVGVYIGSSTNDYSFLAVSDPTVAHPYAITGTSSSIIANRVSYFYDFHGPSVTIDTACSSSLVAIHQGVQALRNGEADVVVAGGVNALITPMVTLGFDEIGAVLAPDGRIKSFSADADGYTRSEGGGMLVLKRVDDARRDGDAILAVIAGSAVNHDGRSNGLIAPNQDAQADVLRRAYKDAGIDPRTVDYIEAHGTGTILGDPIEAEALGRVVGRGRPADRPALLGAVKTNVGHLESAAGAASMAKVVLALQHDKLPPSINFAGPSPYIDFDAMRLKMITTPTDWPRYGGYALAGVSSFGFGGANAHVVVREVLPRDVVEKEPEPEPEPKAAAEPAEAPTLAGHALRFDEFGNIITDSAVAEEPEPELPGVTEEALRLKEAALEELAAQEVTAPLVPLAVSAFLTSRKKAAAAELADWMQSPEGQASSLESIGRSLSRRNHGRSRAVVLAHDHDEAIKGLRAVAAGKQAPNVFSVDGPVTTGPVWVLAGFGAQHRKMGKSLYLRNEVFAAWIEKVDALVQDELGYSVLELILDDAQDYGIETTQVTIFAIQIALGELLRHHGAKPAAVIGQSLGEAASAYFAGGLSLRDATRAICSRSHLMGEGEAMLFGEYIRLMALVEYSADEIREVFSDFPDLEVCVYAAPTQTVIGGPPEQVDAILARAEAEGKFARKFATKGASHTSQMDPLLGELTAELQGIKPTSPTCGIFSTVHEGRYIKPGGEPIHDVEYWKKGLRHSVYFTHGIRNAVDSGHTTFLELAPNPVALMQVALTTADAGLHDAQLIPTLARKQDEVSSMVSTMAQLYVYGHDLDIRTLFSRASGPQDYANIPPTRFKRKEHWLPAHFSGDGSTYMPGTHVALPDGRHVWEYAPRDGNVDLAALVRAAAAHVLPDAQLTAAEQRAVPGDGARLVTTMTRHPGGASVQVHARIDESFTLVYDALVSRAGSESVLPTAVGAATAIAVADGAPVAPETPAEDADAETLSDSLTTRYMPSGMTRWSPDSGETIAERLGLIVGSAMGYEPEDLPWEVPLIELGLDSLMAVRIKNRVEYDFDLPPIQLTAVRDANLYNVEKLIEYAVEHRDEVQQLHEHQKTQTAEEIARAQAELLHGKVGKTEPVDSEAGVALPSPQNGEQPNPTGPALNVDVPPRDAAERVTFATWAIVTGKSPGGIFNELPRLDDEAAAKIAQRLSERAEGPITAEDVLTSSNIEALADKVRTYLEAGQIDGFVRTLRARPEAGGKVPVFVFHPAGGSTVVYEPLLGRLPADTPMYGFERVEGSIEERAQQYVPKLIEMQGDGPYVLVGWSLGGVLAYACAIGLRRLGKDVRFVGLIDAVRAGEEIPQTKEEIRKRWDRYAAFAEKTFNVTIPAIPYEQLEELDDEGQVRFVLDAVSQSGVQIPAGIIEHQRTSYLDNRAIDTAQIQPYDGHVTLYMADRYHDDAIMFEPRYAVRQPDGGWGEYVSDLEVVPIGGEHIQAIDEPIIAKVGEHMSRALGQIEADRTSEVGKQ
Assay: Mycobacterium tuberculosis Polyketide synthase 13 Thioesterase (PKS13)
Type: functional
Parameters: scale not given: in the data most compounds retested in dose-response had high values
Conditions: 30 µM
In all, about 67,000 compounds went through this assay and about 300 (0.45%) showed an effect of 50% or more. Only a selection was taken, and strong results are over-represented in it overall.
I'd appreciate it if you could supply Percent Effect values for the items below.
Please reply with the bare figure in % and do not write the unit itself.

Lookup: Entry Cc1ccc(CN2CC[C@H]3OCC[C@@H](C(=O)N4CCCCO4)[C@@H]3C2)o1 : reported Percent Effect = ?
Found: 16.9

Lookup: Entry CC(=O)N1CCCC1c1ccc(Br)cn1 (configuration not stated) : reported Percent Effect = ?
Found: 61.5

Lookup: Entry Cc1cc(C)c2cc(CNCc3cccnc3)c3nn(C)c(=O)n3c2c1 : reported Percent Effect = ?
Found: 112

Lookup: Entry CC(=O)N1CCCC1c1ccc(-c2c(C)noc2C)cn1 (configuration not stated) : reported Percent Effect = ?
Found: -29.1

Lookup: Entry CC(=O)N1CCCC(c2ccc(Br)cn2)C1 (configuration not stated) : reported Percent Effect = ?
Found: -6.19

Lookup: Entry N#Cc1ccc(C(=O)O)nc1/C=C/c1cccc(Cl)c1 : reported Percent Effect = ?
Found: 51.4

Lookup: Entry COc1ccc(CN2C[C@@H]3OCC(=O)N(Cc4nccn4C)[C@@H]3C2)cc1 : reported Percent Effect = ?
Found: -29.9
